- System: 616215-338-R-J1-PDC complex spheroid viability;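 further: spheroids exposed to compounds for one week before readout; percent viability relative to DMSO vehicle wells taken as 100%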
- ASSAY_TEXT: Anticancer human tumor 616215-338-R-J1-PDC patient-derived colon adenocarcinoma cell line growth inhibition [POLQ]
- CONDITION_DESCRIPTION: second compound 1 µM; first compound 0.316 µM; active compounds read low

| COMPOUND | MEASUREMENT_TARGET | viability, T/C |
| --- | --- | --- |
| C#Cc1c(F)ccc2cc(O)cc(-c3ncc4c(N5CC6CCC(C5)N6)nc(OCC56CCCN5CC(F)C6)nc4c3F)c12 (stereo not drawn) + Nc1ccc(C#CCN(C(=O)Cc2ncc(C(F)(F)F)cc2C(F)(F)F)c2ccc(F)cc2)nn1 | 616215-338-R-J1-PDC complex spheroid viability | 91.3% |
| C=CC(=O)N1CCN(c2nc(=O)n(-c3c(C)ccnc3C(C)C)c3nc(-c4c(O)cccc4F)c(F)cc23)C(C)C1 (stereo not drawn) + COC1C(OC(N)=O)C(O)C(Oc2ccc3c(O)c(NC(=O)c4ccc(O)c(CC=C(C)C)c4)c(=O)oc3c2C)OC1(C)C | 616215-338-R-J1-PDC complex spheroid viability | 94% |
| O=C(Nc1ccc(O)c(NS(=O)(=O)c2ccc(F)cc2)c1)c1ccc(-c2ccccc2)cc1 + Nc1ccc(C#CCN(C(=O)Cc2ncc(C(F)(F)F)cc2C(F)(F)F)c2ccc(F)cc2)nn1 | 616215-338-R-J1-PDC complex spheroid viability | 106% |

Numbers sourced from PubChem BioAssay AID1963843.
